tested on: Pseudomonas aeruginosa PAO1 PCM 499; type: cell-based; settings: LB medium, 24 h, 30° C.
resultType: MIC (µg/mL)
Give the value in µg/mL but do not write µg/mL after it.

Param item = CCCCCCCCCC(=O)N[C@H](CNC(=O)N[C@@H](CCN)CNC(=O)N[C@H](CNC(=O)N[C@H](CNC(=O)N[C@@H](CCN)CNC(N)=O)CC(C)C)CC(C)C)Cc1ccccc1 ; retrieve measured MIC.
10

So what does the record say about MIC for CCCCCCCCCC(=O)N[C@H](CNC(=O)N[C@@H](CCN)CNC(=O)N[C@@H](CCN)CNC(=O)N[C@H](CNC(=O)N[C@H](CNC(N)=O)CC(C)C)CC(C)C)Cc1ccccc1 ?
30

###

Please provide measured MIC for the entries that follow.
system: Yersinia enterocolitica PCM 2081; type: cell-based; details: LB medium, 24 h, 30° C.
Give just the numeric value; µg/mL need not be written.

Using the record for CCCCCCCCCC(=O)N[C@H](CNC(=O)N[C@@H](CCN)CNC(=O)N[C@@H](CCN)CNC(=O)N[C@H](CNC(=O)N[C@H](CNC(N)=O)CC(C)C)CC(C)C)Cc1ccccc1 , report its MIC.
30

What MIC value was documented for this molecule, CCCCCCCCCC(=O)N[C@H](CNC(=O)N[C@@H](CCN)CNC(=O)N[C@H](CNC(=O)N[C@H](CNC(=O)N[C@@H](CCN)CNC(N)=O)CC(C)C)CC(C)C)Cc1ccccc1 ?
10

###

Assignment: determine reported MIC for the given molecules.
test system: Methicillin-resistant Staphylococcus aureus (MRSA) 4811/13; conditions: MRSA strain (+) 4811/13; LB medium, 24 h, 30° C.
Please state the figure in µg/mL; there is no need to write the unit.

Would you kindly share the measured MIC for CCCCCCCCCC(=O)N[C@H](CNC(=O)N[C@@H](CCCCN)CNC(=O)N[C@@H](CCCCN)CNC(=O)N[C@H](CNC(=O)N[C@@H](CCCCN)CNC(N)=O)CC(C)C)Cc1ccccc1 ?
30

Quick check: MIC of CCCCCCCCCC(=O)N[C@H](CNC(=O)N[C@@H](CCN)CNC(=O)N[C@H](CNC(=O)N[C@H](CNC(=O)N[C@@H](CCN)CNC(N)=O)CC(C)C)CC(C)C)Cc1ccccc1 ?
5

// lookup MIC for CCCCCCCCCC(=O)N[C@H](CNC(=O)N[C@@H](CCN)CNC(=O)N[C@@H](CCN)CNC(=O)N[C@H](CNC(=O)N[C@H](CNC(N)=O)CC(C)C)CC(C)C)Cc1ccccc1
10

Tell me the measured MIC of CCCCCCCCCC(=O)N[C@H](CNC(=O)N[C@@H](CCN)CNC(=O)N[C@@H](CCN)CNC(=O)N[C@H](CNC(=O)N[C@@H](CCN)CNC(N)=O)CC(C)C)Cc1ccccc1 , please.
30

###

Would you mind telling me the reported MIC of each entry?
test system: Methicillin-resistant Staphylococcus aureus (MRSA) 401/5; conditions: MRSA strain (+) 401/5; LB medium, 24 h, 30° C.
Kindly provide the numeric value in µg/mL only, without the unit symbol.

Bench note: what MIC did CCCCCCCCCC(=O)N[C@H](CNC(=O)N[C@@H](CCN)CNC(=O)N[C@H](CNC(=O)N[C@H](CNC(=O)N[C@@H](CCN)CNC(N)=O)CC(C)C)CC(C)C)Cc1ccccc1 [LOU3] show?
5

Request the reported MIC associated with CCCCCCCCCC(=O)N[C@H](CNC(=O)N[C@@H](CCN)CNC(=O)N[C@@H](CCN)CNC(=O)N[C@H](CNC(=O)N[C@H](CNC(N)=O)CC(C)C)CC(C)C)Cc1ccccc1 [LOU2]
10

I am curious: what MIC value has been reported for CCCCCCCCCC(=O)N[C@H](CNC(=O)N[C@@H](CCN)CNC(=O)N[C@@H](CCN)CNC(=O)N[C@H](CNC(=O)N[C@@H](CCN)CNC(N)=O)CC(C)C)Cc1ccccc1 [LOU4] ?
20

Query (molecule): CCCCCCCCCC(=O)N[C@H](CNC(=O)N[C@@H](CCCCN)CNC(=O)N[C@@H](CCCCN)CNC(=O)N[C@H](CNC(=O)N[C@@H](CCCCN)CNC(N)=O)CC(C)C)Cc1ccccc1 [LOU1] ; field requested: MIC
30
